assay: Toxicity (lethal effect, LD50) in mice; format: in vivo; details: mouse, in vivo, oral; mice, endogastrically, observation 14 days
Counter-ions that a name gives are not always drawn.
For each of the molecules below, state its LD50 at 14 days.
I only need the number, in mg/kg, no unit after it.

Please look up its LD50 at 14 days: CCOC(=O)c1c(CSc2ccccc2)n(C)c2cc(Br)c(O)c(CN(C)C)c12 [Arbidol, hydrochloride]
860

Please look up its LD50 at 14 days: CCOC(=O)c1c(CS(=O)(=O)c2ccccc2)n(C)c2cc(Br)c(O)cc12
3600
